Tested on: SF-295
Assay: NCI tumour cell line growth inhibition, 48 h
Active and inactive are the calls of the source. No stated cut-off is given here; in the data, active = GI50 up to about 1.1 µM and inactive = higher. Where a SMILES comes first, the peptide text is derived from it. The star is where a group is joined. Boc = CC(C)(C)OC(=O)*
METRIC: GI50

# return GI50 for CNC(=O)CNC(=O)C(NC(=O)CNC(=O)C1CCCN1C(=O)C(C)NC(=O)C(NC(=O)OC(C)(C)C)C(C)C)C(C)C (centres undefined) (Boc-VAPGVG-NHMe; configuration not given here) , test system: SF-295
> 100 µM (inactive)

# return GI50 for CCOC(=O)CCSS(=O)(=O)C(F)(F)F , test system: SF-295
> 100 µM (inactive)

# return GI50 for CSc1nc2c(nc(C)c(=O)n2C2OCC(OC(C)=O)C(OC(C)=O)C2OC(C)=O)c(=O)[nH]1 (centres undefined) , test system: SF-295
> 100 µM (inactive)

# return GI50 for O=C(/C=C1\Nc2ccccc2N=C1NC12CC3CC(CC(C3)C1)C2)c1ccc(Br)cc1 , test system: SF-295
> 10 µM (inactive)

# return GI50 for CC12OC(=O)[C@@]3(O)CCC4C(C[C@H]5O[C@]56CC=CC(=O)[C@]46C)C45OC[C@H]6C(=O)O[C@@H]1C[C@@]6(C)[C@H](C4=O)C23O5 (some centres undefined) , test system: SF-295
4.25 µM (inactive)

# return GI50 for Nc1nc2c(=O)c3ccccc3sc2s1 , test system: SF-295
44.1 µM (inactive)

# return GI50 for O=C(O)C1Cc2ccccc2OC1=O (centres undefined) , test system: SF-295
> 100 µM (inactive)

# return GI50 for NC(=O)NNC/C(Cl)=C(\Cl)C(=O)O , test system: SF-295
> 100 µM (inactive)

# return GI50 for Cc1ccc(-c2c(N)[n+]([O-])c3ccccc3[n+]2[O-])cc1 , test system: SF-295
20 µM (inactive)

# return GI50 for Clc1ccc(C(SCc2ccccc2)SCc2ccccc2)cc1 , test system: SF-295
> 10 µM (inactive)

# return GI50 for COc1cccc2c1OC1Sc3ccccc3-c3nn(-c4ccccc4)c-2c31 (centres undefined) , test system: SF-295
> 100 µM (inactive)

# return GI50 for CC(=O)O[C@H]1CC[C@@]2(C)C(=CC[C@@H]3[C@@H]2CC[C@](C)(c2nnc(C)o2)[C@H]3CC#N)C1 , test system: SF-295
> 100 µM (inactive)

# return GI50 for CCOC(=O)C(=O)/C=C(\C)Nc1c(NC2OCC(OC(C)=O)C(OC(C)=O)C2OC(C)=O)nc(SC)[nH]c1=O (centres undefined) , test system: SF-295
> 100 µM (inactive)

# return GI50 for COC(=O)c1ccc(C)cc1CC1Cc2c(C)cccc2C1=O (centres undefined) , test system: SF-295
7.73 µM (inactive)

----------
Kindly state GI50 for each of the entries shown.
Tested on: U-251
Assay: NCI tumour cell line growth inhibition, 48 h
Calls of active or inactive are those of the source. Cut-off read from the data, not from the text of the source: active = GI50 up to about 1.1 µM and inactive = higher.

# return GI50 for CC1(C)CC(=O)C(C(CC(c2ccccc2)c2cc3c(cc2O)OCO3)C2=C(O)CC(C)(C)CC2=O)=C(O)C1 (stereo unspecified) , test system: U-251
> 10 µM (inactive)

# return GI50 for CN(C)c1ccc(C(=C2C=CC(=[N+](C)C)C=C2)c2c(O)c(S(=O)(=O)[O-])cc3cc(S(=O)(=O)O)ccc23)cc1 , test system: U-251
> 100 µM (inactive)

# return GI50 for O=c1oc2ccccc2c2nc3ccccc3cc12 , test system: U-251
30.1 µM (inactive)

# return GI50 for CC(=O)c1c(O)ccc2c1CC(CC=O)O2 (stereo unspecified) , test system: U-251
83.9 µM (inactive)

# return GI50 for CCCCCCCC(=O)N1C2CC3CCC2(CS1(=O)=O)C3(C)C (stereo unspecified) , test system: U-251
31.3 µM (inactive)

# return GI50 for COc1ccc2c(c1)[n+]([O-])c(-c1ccccc1)c(N)[n+]2[O-] , test system: U-251
31.3 µM (inactive)
